Biological target: CYP2C19 (Homo sapiens)
Sequence (P33261 whole entry): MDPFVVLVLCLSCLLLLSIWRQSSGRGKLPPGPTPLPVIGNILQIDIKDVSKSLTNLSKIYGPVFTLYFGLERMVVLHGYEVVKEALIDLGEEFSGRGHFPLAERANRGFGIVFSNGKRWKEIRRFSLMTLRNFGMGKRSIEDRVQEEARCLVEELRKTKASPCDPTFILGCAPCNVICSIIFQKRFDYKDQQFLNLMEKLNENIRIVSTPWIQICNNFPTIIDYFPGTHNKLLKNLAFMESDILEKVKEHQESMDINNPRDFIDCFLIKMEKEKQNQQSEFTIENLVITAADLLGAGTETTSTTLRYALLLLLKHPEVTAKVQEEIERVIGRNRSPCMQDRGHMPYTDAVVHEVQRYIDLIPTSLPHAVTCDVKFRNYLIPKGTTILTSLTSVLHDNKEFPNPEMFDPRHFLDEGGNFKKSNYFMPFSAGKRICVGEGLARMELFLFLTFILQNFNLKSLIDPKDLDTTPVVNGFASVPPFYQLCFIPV
Assay: in vitro
Conditions: microsomes
endpoint-label: KI (inactivation) (µM)
# value in µM; strip the unit string

Tell me the measured KI (inactivation) of COc1ccc2[nH]c([S+]([O-])Cc3ncc(C)c(OC)c3C)nc2c1 (stereo not shown) , please. 4.47

====

Target: UniProtKB P33261
Assay: S-mephenytoin […]'-hydroxylation inhibition in individual human liver microsomes at […] fluvoxamine, LC-MS/MS
Type: cell-based
Set-up: human liver microsomes
endpoint-label: inhibition at 1 µM (%)
Field format: number, assumed %, no unit text.

Need inhibition at 1 µM of COCCCC/C(=N\OCCN)c1ccc(C(F)(F)F)cc1 , thanks. 85

Hey, just so you know, these numbers are from paper PMC10285291.
